Biological target: Adrenergic receptor beta (Homo sapiens, UniProt P08588+P07550+P13945)
Test: In Vitro inhibition of the beta adrenergic receptor in guinea pig atria
Type: tissue-based, Cavia porcellus
Conditions: target entry is the homologue from another species
quantity: pA2
Respond with the number and no other words.

Below are worked cases with known answers.
[
  {
    "molecule": "CC(C)(C)NCC(O)COC(=O)c1cccc([N+](=O)[O-])c1 (stereo unspecified)",
    "tgt": "Adrenergic receptor beta (Homo sapiens, UniProt P08588+P07550+P13945)",
    "pA2": 6.8
  },
  {
    "molecule": "CC(C)(CNC(=O)N1CCOCC1)NCC(O)COC(=O)c1ccccc1F (stereo unspecified)",
    "tgt": "Adrenergic receptor beta (Homo sapiens, UniProt P08588+P07550+P13945)",
    "pA2": 8.5
  }
]

Query: Field request: pA2 | item: C=CCOc1ccccc1C(=O)OCC(O)CNC(C)C (stereo unspecified)
Response: 6.4

Query: Field request: pA2 | item: CC(C)(CNC(=O)C1CCCCC1)NCC(O)COC(=O)c1ccccc1F (stereo unspecified)
Response: 7.7

Query: Field request: pA2 | item: CC(C)(C)NCC(O)COC(=O)c1cccc(O)c1 (stereo unspecified)
Response: 7.4

Query: Field request: pA2 | item: CC(C)NCC(O)COC(=O)c1ccc2c(c1)OCO2 (stereo unspecified)
Response: 6.9

Query: Field request: pA2 | item: CC(=O)Nc1cccc(C(=O)OCC(O)CNC(C)C)c1 (stereo unspecified)
Response: 6.1

Query: Field request: pA2 | item: CC(C)(C)NCC(O)COC(=O)c1ccc(C=O)cc1 (stereo unspecified)
Response: 6.2

---

Test: t1/2 in canine liver
Format: ADME, Canis lupus familiaris
Details: dog
quantity: half-life

[
  {
    "molecule": "CC(C)(C)NCC(O)COC(=O)c1cccc(OCc2ccccc2)c1 (configuration not stated)",
    "half-life": "> 3 h"
  }
]

Query: Field request: half-life | item: CNC(=O)NCC(C)(C)NCC(O)COC(=O)c1ccccc1F (configuration not stated)
Response: 0.0833 h

Query: Field request: half-life | item: CC(C)(C)NCC(O)COC(=O)c1ccc(O)cc1 (configuration not stated)
Response: > 3 h

Query: Field request: half-life | item: Cc1ccccc1C(=O)OCC(O)CNC(C)(C)C (configuration not stated)
Response: > 3 h

Query: Field request: half-life | item: CC(C)NCC(O)COC(=O)c1cccc(N)c1 (configuration not stated)
Response: > 3 h

Query: Field request: half-life | item: CC(C)NCC(O)COC(=O)c1cccc(F)c1 (configuration not stated)
Response: 0.183 h

Query: Field request: half-life | item: CC(C)(C)NCC(O)COC(=O)c1ccc([N+](=O)[O-])cc1 (configuration not stated)
Response: > 3 h

---

Molecular target: Adrenergic receptor beta (Homo sapiens, UniProt P08588+P07550+P13945)
Assay: In Vitro inhibition of the beta adrenergic receptor in guinea pig atria
Format: tissue-based, Cavia porcellus
Details: target entry is the homologue from another species
quantity: pA2
Respond with the number and no other words.

[
  {
    "compound": "Cc1ccccc1C(=O)OCC(O)CNC(C)(C)C (stereo not given)",
    "pA2": 7.3
  },
  {
    "compound": "CN(C)S(=O)(=O)NCC(C)(C)NCC(O)COC(=O)c1ccccc1F (stereo not given)",
    "pA2": 7.4
  },
  {
    "compound": "CC(C)NCC(O)COC(=O)c1ccc(N)cc1 (stereo not given)",
    "pA2": 6.7
  },
  {
    "compound": "CC(C)(C)NCC(O)COC(=O)CCCc1ccccc1 (stereo not given)",
    "pA2": 5.3
  },
  {
    "compound": "CC(C)(C)NCC(O)COC(=O)c1ccc2c(c1)OCO2 (stereo not given)",
    "pA2": 6.9
  }
]

Query: Field request: pA2 | item: C=CCOc1ccc(C(=O)OCC(O)CNC(C)(C)C)cc1 (stereo not given)
Response: 6

Query: Field request: pA2 | item: CC(C)NCC(O)COC(=O)c1ccc(F)cc1 (stereo not given)
Response: 6.6

Query: Field request: pA2 | item: CC(C)(C)NCC(O)COC(=O)c1ccc([N+](=O)[O-])cc1 (stereo not given)
Response: 6.1
